All figures here come from patent US12662481B2.

Study system: ATR/ATRIP (Homo sapiens)
Sequence (Q13535 whole entry): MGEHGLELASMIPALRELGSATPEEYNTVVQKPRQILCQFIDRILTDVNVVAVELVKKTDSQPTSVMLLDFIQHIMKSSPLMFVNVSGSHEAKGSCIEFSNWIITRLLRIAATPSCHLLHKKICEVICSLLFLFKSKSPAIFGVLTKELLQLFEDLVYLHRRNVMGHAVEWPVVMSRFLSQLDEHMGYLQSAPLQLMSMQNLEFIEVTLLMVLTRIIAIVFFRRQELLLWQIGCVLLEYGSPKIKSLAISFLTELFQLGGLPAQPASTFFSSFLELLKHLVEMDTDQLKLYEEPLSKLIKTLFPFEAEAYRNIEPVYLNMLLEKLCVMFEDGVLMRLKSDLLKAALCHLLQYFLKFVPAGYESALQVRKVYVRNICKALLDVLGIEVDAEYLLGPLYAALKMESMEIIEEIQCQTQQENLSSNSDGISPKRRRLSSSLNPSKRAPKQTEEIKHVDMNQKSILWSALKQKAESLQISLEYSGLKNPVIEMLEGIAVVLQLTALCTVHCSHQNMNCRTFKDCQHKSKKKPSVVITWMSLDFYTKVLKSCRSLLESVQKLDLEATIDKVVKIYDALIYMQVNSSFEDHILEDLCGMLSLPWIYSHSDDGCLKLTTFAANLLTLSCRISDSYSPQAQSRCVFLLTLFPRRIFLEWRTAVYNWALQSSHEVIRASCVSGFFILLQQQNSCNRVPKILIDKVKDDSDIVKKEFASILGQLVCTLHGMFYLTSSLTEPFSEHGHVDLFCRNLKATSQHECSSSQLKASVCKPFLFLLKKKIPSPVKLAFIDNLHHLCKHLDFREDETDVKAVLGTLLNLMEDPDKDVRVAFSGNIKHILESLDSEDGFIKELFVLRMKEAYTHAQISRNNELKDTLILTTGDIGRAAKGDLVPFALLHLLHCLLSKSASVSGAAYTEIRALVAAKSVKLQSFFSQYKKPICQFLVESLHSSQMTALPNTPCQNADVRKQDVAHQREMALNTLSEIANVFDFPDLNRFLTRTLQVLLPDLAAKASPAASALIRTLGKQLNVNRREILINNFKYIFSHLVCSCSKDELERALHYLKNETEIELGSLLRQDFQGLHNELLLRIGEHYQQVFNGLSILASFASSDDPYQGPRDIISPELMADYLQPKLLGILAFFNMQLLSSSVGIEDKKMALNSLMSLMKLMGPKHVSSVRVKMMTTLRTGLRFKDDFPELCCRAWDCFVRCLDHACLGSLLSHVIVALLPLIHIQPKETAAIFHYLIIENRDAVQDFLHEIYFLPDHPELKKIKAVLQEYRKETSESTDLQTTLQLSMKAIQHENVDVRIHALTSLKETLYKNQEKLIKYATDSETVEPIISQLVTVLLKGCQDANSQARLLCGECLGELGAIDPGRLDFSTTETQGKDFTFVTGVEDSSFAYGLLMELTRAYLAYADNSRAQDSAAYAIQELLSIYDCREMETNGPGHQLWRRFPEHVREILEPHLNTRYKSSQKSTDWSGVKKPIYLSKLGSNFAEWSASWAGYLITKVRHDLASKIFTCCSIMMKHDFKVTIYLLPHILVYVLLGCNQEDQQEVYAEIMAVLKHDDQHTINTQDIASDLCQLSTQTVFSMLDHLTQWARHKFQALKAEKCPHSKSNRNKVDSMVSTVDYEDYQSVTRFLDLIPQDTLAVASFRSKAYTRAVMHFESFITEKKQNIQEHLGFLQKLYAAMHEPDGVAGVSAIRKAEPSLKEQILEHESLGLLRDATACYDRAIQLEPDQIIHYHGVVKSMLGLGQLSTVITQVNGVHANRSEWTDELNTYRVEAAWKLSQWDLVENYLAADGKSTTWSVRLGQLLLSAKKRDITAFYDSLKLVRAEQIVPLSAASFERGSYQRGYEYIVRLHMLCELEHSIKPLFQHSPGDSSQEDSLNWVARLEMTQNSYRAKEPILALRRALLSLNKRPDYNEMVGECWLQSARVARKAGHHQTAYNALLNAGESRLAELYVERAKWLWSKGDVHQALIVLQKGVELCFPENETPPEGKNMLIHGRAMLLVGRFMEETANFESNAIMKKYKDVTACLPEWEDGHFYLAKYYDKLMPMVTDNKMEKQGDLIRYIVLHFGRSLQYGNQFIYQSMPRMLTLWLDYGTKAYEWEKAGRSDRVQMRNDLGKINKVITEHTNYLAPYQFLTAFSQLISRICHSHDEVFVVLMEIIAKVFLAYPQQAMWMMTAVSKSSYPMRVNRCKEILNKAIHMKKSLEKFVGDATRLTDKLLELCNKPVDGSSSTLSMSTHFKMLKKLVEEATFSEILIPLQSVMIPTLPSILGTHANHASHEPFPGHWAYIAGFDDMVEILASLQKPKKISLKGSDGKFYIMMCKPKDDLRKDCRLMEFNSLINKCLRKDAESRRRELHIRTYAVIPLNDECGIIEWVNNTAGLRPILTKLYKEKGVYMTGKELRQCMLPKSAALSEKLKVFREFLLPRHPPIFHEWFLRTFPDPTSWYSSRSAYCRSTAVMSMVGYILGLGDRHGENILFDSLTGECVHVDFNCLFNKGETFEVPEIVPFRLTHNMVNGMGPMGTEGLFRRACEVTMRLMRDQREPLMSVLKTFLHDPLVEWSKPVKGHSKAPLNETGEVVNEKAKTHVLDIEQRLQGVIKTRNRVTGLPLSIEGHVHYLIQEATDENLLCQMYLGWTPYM
Sequence (Q8WXE1 whole entry partner): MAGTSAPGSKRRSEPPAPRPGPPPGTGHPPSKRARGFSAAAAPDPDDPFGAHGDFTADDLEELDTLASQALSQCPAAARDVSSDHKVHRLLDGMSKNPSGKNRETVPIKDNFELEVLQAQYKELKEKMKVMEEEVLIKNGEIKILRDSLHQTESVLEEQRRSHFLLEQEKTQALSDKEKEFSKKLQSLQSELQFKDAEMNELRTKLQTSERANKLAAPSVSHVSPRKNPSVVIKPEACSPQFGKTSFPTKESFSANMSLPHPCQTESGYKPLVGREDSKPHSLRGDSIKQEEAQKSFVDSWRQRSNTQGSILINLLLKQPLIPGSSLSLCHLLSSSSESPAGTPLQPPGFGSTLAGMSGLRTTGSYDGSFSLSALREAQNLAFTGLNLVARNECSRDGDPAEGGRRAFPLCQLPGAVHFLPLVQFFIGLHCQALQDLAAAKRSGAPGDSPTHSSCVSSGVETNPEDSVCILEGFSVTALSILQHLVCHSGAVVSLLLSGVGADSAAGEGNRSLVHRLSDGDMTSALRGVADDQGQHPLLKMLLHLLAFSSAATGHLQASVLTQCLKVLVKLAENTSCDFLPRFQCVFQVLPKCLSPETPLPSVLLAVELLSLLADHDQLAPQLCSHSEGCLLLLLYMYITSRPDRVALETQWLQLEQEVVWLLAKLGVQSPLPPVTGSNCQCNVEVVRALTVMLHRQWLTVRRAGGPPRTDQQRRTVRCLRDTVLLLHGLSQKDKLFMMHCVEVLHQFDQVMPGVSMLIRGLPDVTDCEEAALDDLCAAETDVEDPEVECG
Assay notes: ATR/ATRIP enzymatic assay (AlphaScreen, phosphorylation of p53)
Readout name: IC50 (nM)
Report the figure in nM without appending any unit label.

>>> print(df.to_string())
                              line_notation  result
0  C[C@@H]1COCCN1c1cc(-c2nncs2)c2cnn(-c3cc[nH]n3)c2n1     154

Pending compound:
### Prompt Quick check: IC50 of Cc1ccncc1-c1cc(N2CCOC[C@H]2C)nc2c1ccn2-c1cc[nH]n1 ?
### Response 371
